// provenance: ChEMBL document CHEMBL1201862

- Tested on: M14
- ASSAY: NCI tumour cell line growth inhibition, 48 h
Calls of active or inactive are those of the source. Cut-off read from the data, not from the text of the source: active = GI50 up to about 1.1 µM and inactive = higher. Non-standard residues stand in square brackets, D forms with d. Residues, ends and D or L forms follow the SMILES beside them. *: point of attachment. Bn2Val = CC(C)[C@@H](C(=O)*)N(Cc1ccccc1)Cc1ccccc1; NH(4-Cl-benzyl) = Clc1ccc(CN*)cc1; NMeV = CN[C@H](C(=O)O)C(C)C; dNMeA = CN[C@H](C)C(=O)O
Thanks in advance; please answer with one of these: yes = active, no = inactive

-- ask For this molecule, state the assay outcome: Oc1ccc(Cl)cc1Cc1cc(Cl)cc(Cc2cc(Cl)ccc2O)c1O
-- reply no

-- ask Per the records of this test, what outcome belongs to COC(=O)c1c/c(=N\NC(=O)CC(=O)Nc2ccccc2OC)c2ccccc2o1 ?
-- reply no

-- ask Which outcome was assigned to C=CCN(CCN(CC=C)S(=O)(=O)c1ccc(C)cc1)S(=O)(=O)c1ccc(C)cc1 in this test?
-- reply no

-- ask Per the assay record, what outcome was assigned to Cc1cc(S(=O)(=O)Nc2nc(N)nc(N3N=CCC3C)n2)c(SCC(=O)O)cc1Cl (stereo not given) ?
-- reply no

-- ask What did the test return for COC(=O)/C(C#N)=C/c1cc(C(C)(C)C)c(O)c(C(C)(C)C)c1 ?
-- reply no

-- ask Write down the call the test reported for this molecule. Item: COc1ccc2cc(Oc3ccc(Cl)cc3)c(=O)oc2c1
-- reply no

-- ask Write down the call the test reported for this molecule. Item: CCCCCCCCC/C=C1\CCC(CN(C)C)C1=O (stereo not given)
-- reply no

-- ask Per the assay record, what outcome was assigned to NC(=S)N/N=C1\CCCC\C1=C/c1ccccc1 ?
-- reply no

-- ask Short answer needed: outcome of this test for Nc1nc(O)nc2c1ncn2C1OC(CO)C(O)C1O (stereo not given) ?
-- reply no

-- ask Dear colleague, could you share the recorded outcome for Cc1c(O)oc2ccccc2c1=O when you have a moment?
-- reply no

-- ask Status in this test for CN1Cc2c(nc(-c3ccc(Br)cc3)c[n+]2[O-])N(C)C1 ?
-- reply no

-- ask For CC(=N)OC1CC2CCC1(C)C2(C)C (stereo not given) , what call appears in the results of this test?
-- reply no

-- ask Tell me the assay call for Cc1nn(C(=O)c2ccc(Cl)cc2)c2c1C(/C=C/c1ccccc1)SC(=N)N2 (stereo not given) please.
-- reply no

-- ask // param item: Oc1[nH]c(Nc2ccc(F)c(Cl)c2)nc2ncnc1-2 ; yields the recorded call
-- reply no

-- ask Which outcome was entered for the molecule O=C(NC1CCN(Cc2ccccc2)CC1)c1ccccc1I in this test?
-- reply no

-- ask Test call, this molecule: CC12CCC(C(Nc3ccccn3)C1=O)C2(C)C (stereo not given)
-- reply no

-- ask Which outcome did this test record for the molecule COc1cc2c(oc(=O)c3cc4ccoc4c(OC)c32)c2cccc(O)c12 ?
-- reply no

-- ask Hey, what did the test say about CN(C)S(=O)(=O)c1ccc(Nc2ccc(O)c3c2C(=O)c2c([N+](=O)[O-])ccc(O)c2C3=O)cc1 ?
-- reply no

-- ask Check the results log: what was the call for CC[C@@]1(O)C(=O)OCc2c1cc1n(c2=O)Cc2c-1nc1ccccc1c2/C=N/c1ccccc1N[C@@H]1c2cc3c(cc2[C@@H](c2cc(OC)c(O)c(OC)c2)[C@H]2C(=O)OC[C@@H]21)OCO3 ?
-- reply yes

-- ask How did this test come out for CC(C)[C@H](NC(=O)[C@H](C(C)C)N(Cc1ccccc1)Cc1ccccc1)C(=O)N(C)[C@H](C(=O)N1CCC[C@H]1C(=O)N(C)[C@H](C)C(=O)NCc1ccc(Cl)cc1)C(C)C (Bn2Val-V[NMeV]P[dNMeA]-{NH(4-Cl-benzyl)}) ?
-- reply no

###

- Test system: LOX IMVI
- ASSAY: NCI tumour cell line growth inhibition, 48 h
The source made the active and inactive calls. Rule as the data show it: active = GI50 up to about 1.1 µM and inactive = higher.
What GI50 was measured for each of the following?

-- ask Please give the documented GI50 of N#CC(C(=O)CCC(=O)C(C#N)c1ccccc1)c1ccccc1 (configuration not stated)
-- reply > 100 µM (inactive)

-- ask Recall and state the measured GI50 for O=C(O)C1(Cc2ccccc2)Cc2ccccc2C1 .
-- reply > 100 µM (inactive)

-- ask Item COCc1nc2c(OC)c(-c3nc4ccc(N5CCN(C)CC5)nc4[nH]3)cc(OC)c2[nH]1 : provide GI50
-- reply 30.8 µM (inactive)

-- ask Consider the compound CC(C)(C(=O)NN)c1ccccc1 . State its measured GI50.
-- reply 7.91 µM (inactive)

-- ask Respond only with GI50 recorded for O=C1CC(c2ccc(Cl)cc2)=Nc2ccccc2N1
-- reply 24.2 µM (inactive)

-- ask Give a short answer stating reported GI50 for COCC(O)Cn1ccnc1[N+](=O)[O-] (configuration not stated) [MISONIDAZOLE] .
-- reply > 100 µM (inactive)

-- ask Query GI50 for C=C(Cl)c1c(OC)cccc1OCc1ccccc1
-- reply 69.7 µM (inactive)

-- ask // Input: O=C(CC(=O)N1N=C(c2ccccc2)C(/N=N/c2ccc(Cl)cc2)C1=O)Nc1ccccc1Cl (configuration not stated) . Output its GI50 only.
-- reply 26.2 µM (inactive)

-- ask Please indicate GI50 recorded for CCOC(=O)c1cn(C)c(=S)n2c1nc1ccccc12
-- reply 56 µM (inactive)

-- ask Please give the documented GI50 of Clc1ccc2c(NC3CCC(N4CCCCC4)CC3)ccnc2c1 (configuration not stated)
-- reply 14.9 µM (inactive)

-- ask Input Cc1nc(O)nc2nc3ccc(Cl)cc3c(NCCNCCO)c12 , output reported GI50.
-- reply 8.83 µM (inactive)

-- ask Identify the reported GI50 for the following entry. COc1ccc(CC/N=C2\OCc3ccccc32)cc1OC
-- reply 41.2 µM (inactive)

###

- System: RPMI-8226
- ASSAY: NCI tumour cell line growth inhibition, 48 h
The source made the active and inactive calls. Rule as the data show it: active = GI50 up to about 1.1 µM and inactive = higher.
Please provide measured GI50 for the entries that follow.

-- ask // fetch GI50 for COc1ccc2c(c1)OCC1Cc3cc4c(cc3OC21)OCO4 (configuration not stated) ; system: RPMI-8226
-- reply 71.4 µM (inactive)

-- ask State GI50 (RPMI-8226) of Nc1sc2c(c1C(=O)c1ccc(Cl)c(Cl)c1)CCCC2 .
-- reply 17.8 µM (inactive)

-- ask Lab note: RPMI-8226 assay, enter GI50 for c1ccc(/C(=N/Nc2ccccn2)c2ncccn2)cc1 here
-- reply 1.39 µM (inactive)

-- ask Tell me its GI50 on RPMI-8226: CC1=NN(c2nc(N)nc(CCl)n2)C(C)(C)C1
-- reply 25.6 µM (inactive)

-- ask Write down measured GI50 (RPMI-8226) for this molecule. CCOC(=O)c1c(-c2ccccc2)[nH]c2ccc(Cl)cc2c1=O
-- reply 36.9 µM (inactive)

-- ask # assay system RPMI-8226: give GI50 of Cc1nc(O)nc2nc3ccc(Cl)cc3c(NCCNCCO)c12
-- reply 42.9 µM (inactive)

-- ask For RPMI-8226, give the measured GI50 of the entry COc1ccc(-c2nc3ccc(C)cc3o2)c(OC)c1
-- reply 19.5 µM (inactive)

-- ask Output reported GI50 of the molecule Nc1nc(O)nc2c1ncn2C1OC(CO)C(O)C1O (configuration not stated) on RPMI-8226.
-- reply 61.7 µM (inactive)

-- ask State GI50 (RPMI-8226) of O=C(Nc1ccc(Cl)c(Cl)c1)N1N=C2c3ccccc3CCC2C1c1ccc(Cl)cc1 (configuration not stated) .
-- reply > 100 µM (inactive)

-- ask Identify measured GI50 obtained with RPMI-8226 for CCOC(=O)[C@@]12C[C@](/C=C/OC)(O[Si](C)(C)C)[C@@]13c1cc(OC)c(OC)cc1CCN3C(=O)C2O (some centres not stated) .
-- reply > 100 µM (inactive)

-- ask Specify GI50 for COc1cc(C2SCC(=O)N2c2ccc(Cl)c(Cl)c2)cc(OC)c1OC (configuration not stated) , system RPMI-8226.
-- reply 31.8 µM (inactive)

-- ask Return reported GI50 for target or system RPMI-8226, item CC1(C)OCC(C2OC(N3O[C@H](CI)C[C@@H]3c3ccccc3)C3OC(C)(C)OC23)O1 (some centres not stated) .
-- reply 43 µM (inactive)

-- ask Please look at COc1cc([C@H]2Oc3cc(O)c4c(=O)cc(-c5ccccc5)oc4c3O[C@@H]2CO)ccc1O and tell me its recorded GI50 on RPMI-8226.
-- reply 59.8 µM (inactive)

-- ask Please tell me the measured GI50 for Nc1ncnc2c1ncn2CCCNO ; system: RPMI-8226.
-- reply > 100 µM (inactive)

-- ask Look up RPMI-8226 data: GI50 of CC1=C(SCc2ccccc2)C(=O)c2ccccc2C1=O , then report it.
-- reply 2.42 µM (inactive)

-- ask State measured GI50 of the molecule COc1ccccc1NC(=O)C1=C(C)NC(C)=C(C(=O)Nc2ccccc2OC)C1c1ccccc1OC with RPMI-8226.
-- reply 75.9 µM (inactive)

-- ask Find GI50 for O=C1c2ccccc2C(=O)N1CCCCCCNOCCCN1C(=O)c2ccccc2C1=O on RPMI-8226 and write it down.
-- reply 14.4 µM (inactive)

-- ask Provide measured GI50 on RPMI-8226 for C=CC(=C)CCC(Br)C(C)(C)Cl (configuration not stated) please.
-- reply > 100 µM (inactive)

-- ask State the measured GI50 (RPMI-8226) of CN1CCN(CCCCN2c3ccccc3Sc3ccc(N=[N+]=[N-])cc32)CC1
-- reply 2.36 µM (inactive)

-- ask Please respond with reported GI50 (system RPMI-8226) for CN1CC[C@]2(c3cccc(O)c3)CC(=O)/C(=C/c3ccccc3)[C@@H]1C2.[O-][Cl+3]([O-])([O-])O .
-- reply 1.86 µM (inactive)

-- ask Send back RPMI-8226 GI50 of COc1ccc(/N=N/c2ccc3oc(=O)c(C(=O)Nc4ccccc4C)cc3c2)cc1 only.
-- reply > 10 µM (inactive)

-- ask State GI50 (RPMI-8226) of COc1ccc(-c2cc(-c3ccncc3)nc(N)c2-c2ccc(F)cc2)cc1 .
-- reply > 100 µM (inactive)
